# tested system: human CB2 receptors (Homo sapiens, UniProt P34972)
# Construct: expressed in transfected cells; host or cells: CHO cells
# Sequence (P34972 whole entry): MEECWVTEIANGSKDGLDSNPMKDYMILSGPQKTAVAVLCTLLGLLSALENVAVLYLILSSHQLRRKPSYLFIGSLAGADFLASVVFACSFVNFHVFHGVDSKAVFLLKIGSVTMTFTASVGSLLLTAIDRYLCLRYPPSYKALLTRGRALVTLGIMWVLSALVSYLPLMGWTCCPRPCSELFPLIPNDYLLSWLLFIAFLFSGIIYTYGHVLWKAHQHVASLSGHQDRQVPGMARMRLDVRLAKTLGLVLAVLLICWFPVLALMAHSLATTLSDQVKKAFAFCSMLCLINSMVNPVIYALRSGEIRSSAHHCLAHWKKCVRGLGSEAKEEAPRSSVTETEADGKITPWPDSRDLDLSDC
# assay comment: functional cAMP assay, CHO cells expressing human CB2 receptors
# Assay type: cell-based
EC50 values, listed per item
quantity name: EC50 (nM)

[
  {
    "compound": "CC(C)(C)c1nc(N2CC[C@H](O)C2)c2ccn(Cc3ccccc3S(C)(=O)=O)c2n1",
    "tested system": "human CB2 receptors (Homo sapiens, UniProt P34972)",
    "quantity name": "EC50",
    "unit of measurement": "nM",
    "observed measurement": 4.2
  },
  {
    "compound": "CC(=O)OC1CCN(c2nc(C(C)(C)C)nc3c2ccn3Cc2nonc2C)C1 (centres unmarked)",
    "tested system": "human CB2 receptors (Homo sapiens, UniProt P34972)",
    "quantity name": "EC50",
    "unit of measurement": "nM",
    "observed measurement": 88.7
  },
  {
    "compound": "CC(C)(C)c1nc(N2CCC(F)(F)C2)c2ccn(Cc3cccc(Cl)c3Cl)c2n1",
    "tested system": "human CB2 receptors (Homo sapiens, UniProt P34972)",
    "quantity name": "EC50",
    "unit of measurement": "nM",
    "observed measurement": 12.5
  },
  {
    "compound": "CC(C)(C)c1nc(N2CCC(O)C2)c2ccn(Cc3ccccc3C(F)(F)F)c2n1 (centres unmarked)",
    "tested system": "human CB2 receptors (Homo sapiens, UniProt P34972)",
    "quantity name": "EC50",
    "unit of measurement": "nM",
    "observed measurement": 6.9
  },
  {
    "compound": "Cc1nonc1Cn1ccc2c(N3CCC(O)C3)nc(C(C)(C)C)nc21 (centres unmarked)",
    "tested system": "human CB2 receptors (Homo sapiens, UniProt P34972)",
    "quantity name": "EC50",
    "unit of measurement": "nM",
    "observed measurement": 18.9
  },
  {
    "compound": "CC(C)(C)c1nc(N2CCC(O)C2)c2ccn(Cc3c[nH]nc3C(F)(F)F)c2n1 (centres unmarked)",
    "tested system": "human CB2 receptors (Homo sapiens, UniProt P34972)",
    "quantity name": "EC50",
    "unit of measurement": "nM",
    "observed measurement": 35.6
  },
  {
    "compound": "CC(C)(C)c1nc(N2CC3(COC3)C2)c2ccn(Cc3cccc(Cl)c3Cl)c2n1",
    "tested system": "human CB2 receptors (Homo sapiens, UniProt P34972)",
    "quantity name": "EC50",
    "unit of measurement": "nM",
    "observed measurement": 91.4
  },
  {
    "compound": "CC(C)(C)c1nc(N2CCC(F)(F)C2)c2ccn(Cc3ccccc3Cl)c2n1",
    "tested system": "human CB2 receptors (Homo sapiens, UniProt P34972)",
    "quantity name": "EC50",
    "unit of measurement": "nM",
    "observed measurement": 10.1
  }
]

###

# tested system: human CB2 receptors (Homo sapiens)
# Construct: expressed in transfected cells; host or cells: CHO cells
# assay comment: functional cAMP assay, CHO cells expressing human CB2 receptors
# Type: cell-based
# measurement context: human EC50, functional cAMP assay, CHO cells expressing human CB2; read-out: EC50:CB2
Returns: string. Value is met if measured EC50 is below 300 nM, and not met if it is greater than or equal to it.

[
  {
    "molecule": "Cn1nnnc1Cn1ccc2c(N3CC4(COC4)C3)nc(C(C)(C)C)nc21 [Example 50]",
    "qualitative label": "not met"
  },
  {
    "molecule": "Cc1nnc(Cn2ccc3c(N4CCC(O)C4)nc(C(C)(C)C)nc32)o1 (stereo not drawn) [Example 33]",
    "qualitative label": "not met"
  },
  {
    "molecule": "Cn1nnnc1Cn1ccc2c(N3CCC(O)C3)nc(C(C)(C)C)nc21 (stereo not drawn) [Example 34]",
    "qualitative label": "met"
  },
  {
    "molecule": "Cc1noc(Cn2ccc3c(N4CCC(O)C4)nc(C(C)(C)C)nc32)n1 (stereo not drawn) [Example 31]",
    "qualitative label": "not met"
  },
  {
    "molecule": "Cc1nnc(Cn2ccc3c(N4CC5(COC5)C4)nc(C(C)(C)C)nc32)o1 [Example 23]",
    "qualitative label": "not met"
  },
  {
    "molecule": "CC(C)(C)c1nc(N2CCC(O)C2)c2ccn(Cc3nnnn3C3CC3)c2n1 (stereo not drawn) [Example 38]",
    "qualitative label": "met"
  },
  {
    "molecule": "Cc1noc(Cn2ccc3c(N4CC5(COC5)C4)nc(C(C)(C)C)nc32)n1 [Example 15]",
    "qualitative label": "not met"
  },
  {
    "molecule": "CC(=O)OC1CCN(c2nc(C(C)(C)C)nc3c2ccn3Cc2nnnn2C)C1 (stereo not drawn) [Example 35]",
    "qualitative label": "met"
  },
  {
    "molecule": "CC(C)(C)c1nc(N2CCC(O)C2)c2ccn(Cc3ccccc3Cl)c2n1 (stereo not drawn) [Example 24]",
    "qualitative label": "not met"
  }
]

###

# tested system: human CB2 receptors (Homo sapiens, UniProt P34972)
# Construct: expressed in transfected cells; host or cells: CHO cells
# assay comment: functional cAMP assay, CHO cells expressing human CB2 receptors
# Type: cell-based
pEC50: −log10 of the molar value.

[
  {
    "molecule": "CC(C)(C)c1nc(N2CC3(COC3)C2)c2ccn(Cc3ccc(F)cc3Cl)c2n1",
    "pEC50": 7.37
  },
  {
    "molecule": "CC(C)(C)c1nc(N2CCC(O)C2)c2ccn([C@@H]3CCOC3)c2n1 (stereo partly shown)",
    "pEC50": 7.46
  },
  {
    "molecule": "CC(C)(C)c1nc(N2CCC(F)(F)C2)c2ccn(Cc3nnnn3C3CC3)c2n1",
    "pEC50": 7.64
  },
  {
    "molecule": "CC(C)(C)c1nc(N2CC3(COC3)C2)c2ccn(Cc3ccccc3S(C)(=O)=O)c2n1",
    "pEC50": 7.84
  },
  {
    "molecule": "CC(C)(C)c1nc(N2CCC(F)(F)C2)c2ccn(Cc3ncccc3Cl)c2n1",
    "pEC50": 8.38
  },
  {
    "molecule": "CC(C)(C)c1nc(N2CCC(O)C2)c2ccn(Cc3cccc(Cl)c3Cl)c2n1 (stereo not shown)",
    "pEC50": 7.85
  },
  {
    "molecule": "CC(C)(C)c1nc(N2CC[C@H](O)C2)c2ccn(Cc3cccc(Cl)c3Cl)c2n1",
    "pEC50": 8.46
  }
]

###

Recorded measurements of pEC50, one per entry
# tested system: human CB2 receptors (Homo sapiens)
# Construct: expressed in transfected cells; host or cells: CHO cells
# assay comment: functional cAMP assay, CHO cells expressing human CB2 receptors
# Type: cell-based
pEC50: −log10 of the molar value.

[
  {
    "compound": "CC(C)(C)c1nc(N2CCC(F)(F)C2)c2ccn(Cc3ccccc3S(C)(=O)=O)c2n1",
    "pEC50": 7.94
  },
  {
    "compound": "CC(C)(C)c1nc(N2CC[C@H](O)C2)c2ccn(Cc3ccccc3C(F)(F)F)c2n1",
    "pEC50": 8.48
  },
  {
    "compound": "CC(C)(C)c1nc(N2CC3(COC3)C2)c2ccn(Cc3ccccc3Cl)c2n1",
    "pEC50": 7.82
  },
  {
    "compound": "CC(C)(C)c1nc(N2CCC(F)(F)C2)c2ccn(Cc3cccnc3Cl)c2n1",
    "pEC50": 7.92
  },
  {
    "compound": "CC(=O)OC1CCN(c2nc(C(C)(C)C)nc3c2ccn3Cc2cccc(Cl)c2Cl)C1 (centres unmarked)",
    "pEC50": 7.07
  },
  {
    "compound": "CC(C)(C)c1nc(N2CCC(F)(F)C2)c2ccn(Cc3ccc(F)cc3Cl)c2n1",
    "pEC50": 7.58
  },
  {
    "compound": "CC(C)(C)c1nc(N2CCC(O)C2)c2ccn(Cc3ccc(F)cc3Cl)c2n1 (centres unmarked)",
    "pEC50": 7.99
  },
  {
    "compound": "Cc1nnc(Cn2ccc3c(N4CCC(F)(F)C4)nc(C(C)(C)C)nc32)n1C",
    "pEC50": 7.51
  }
]

###

A collection of molecules and their measured EC50
# tested system: human CB2 receptors (Homo sapiens, UniProt P34972)
# Construct: expressed in transfected cells; host or cells: CHO cells
# assay comment: functional cAMP assay, CHO cells expressing human CB2 receptors
# Format: cell-based

[
  {
    "molecule": "CC(C)(C)c1nc(N2CCC(F)(F)C2)c2ccn(Cc3c[nH]nc3C(F)(F)F)c2n1",
    "EC50, nM": 13.5
  },
  {
    "molecule": "Cc1nnc(Cn2ccc3c(N4CCC(F)(F)C4)nc(C(C)(C)C)nc32)o1",
    "EC50, nM": 29.6
  },
  {
    "molecule": "CC(C)(C)c1nc(N2CC3(COC3)C2)c2ccn([C@@H]3CCOC3)c2n1",
    "EC50, nM": 61.8
  },
  {
    "molecule": "CC(C)(C)c1nc(N2CCC(O)C2)c2ccn(Cc3ncccc3Cl)c2n1 (stereo not drawn)",
    "EC50, nM": 8.4
  },
  {
    "molecule": "Cn1nnnc1Cn1ccc2c(N3CCC(F)(F)C3)nc(C(C)(C)C)nc21",
    "EC50, nM": 14
  },
  {
    "molecule": "CC(C)(C)c1nc(N2CCC(F)(F)C2)c2ccn(Cc3ccccc3C(F)(F)F)c2n1",
    "EC50, nM": 7.4
  },
  {
    "molecule": "CC(C)(C)c1nc(N2CCC(O)C2)c2ccn(Cc3cccnc3Cl)c2n1 (stereo not drawn)",
    "EC50, nM": 3.6
  },
  {
    "molecule": "CC(C)(C)c1nc(N2CC[C@H](O)C2)c2ccn(Cc3ccc(F)cc3Cl)c2n1",
    "EC50, nM": 6.3
  },
  {
    "molecule": "CC(C)(C)c1nc(N2CC[C@H](O)C2)c2ccn(Cc3ncccc3Cl)c2n1",
    "EC50, nM": 5.8
  },
  {
    "molecule": "Cc1nonc1Cn1ccc2c(N3CCC(F)(F)C3)nc(C(C)(C)C)nc21",
    "EC50, nM": 9.5
  },
  {
    "molecule": "CC(C)(C)c1nc(N2CC3(COC3)C2)c2ccn(Cc3ncccc3Cl)c2n1",
    "EC50, nM": 10.7
  },
  {
    "molecule": "Cc1nonc1Cn1ccc2c(N3CC[C@H](O)C3)nc(C(C)(C)C)nc21",
    "EC50, nM": 8.5
  },
  {
    "molecule": "CC(C)(C)c1nc(N2CC3(COC3)C2)c2ccn([C@H]3CCOC3)c2n1",
    "EC50, nM": 78.7
  },
  {
    "molecule": "CC(C)(C)c1nc(N2CC[C@H](O)C2)c2ccn(Cc3cccnc3Cl)c2n1",
    "EC50, nM": 5.1
  },
  {
    "molecule": "CC(C)(C)c1nc(N2CC3(COC3)C2)c2ccn(Cc3cccnc3Cl)c2n1",
    "EC50, nM": 24.2
  },
  {
    "molecule": "Cc1noc(Cn2ccc3c(N4CCC(F)(F)C4)nc(C(C)(C)C)nc32)n1",
    "EC50, nM": 49.6
  },
  {
    "molecule": "CC(C)(C)c1nc(N2CCC(O)C2)c2ccn(Cc3ccccc3S(C)(=O)=O)c2n1 (stereo not drawn)",
    "EC50, nM": 16.8
  },
  {
    "molecule": "Cc1nonc1Cn1ccc2c(N3CC4(COC4)C3)nc(C(C)(C)C)nc21",
    "EC50, nM": 48.4
  }
]
